molecular target: human mAChR M1 (Homo sapiens, UniProt P11229); assay: mAChR M1 cell-based functional assay (calcium mobilization), agonist mode: compound alone, Emax relative to acetylcholine maximum; settings: relative to the maximum for acetylcholine
Sequence (P11229 whole entry): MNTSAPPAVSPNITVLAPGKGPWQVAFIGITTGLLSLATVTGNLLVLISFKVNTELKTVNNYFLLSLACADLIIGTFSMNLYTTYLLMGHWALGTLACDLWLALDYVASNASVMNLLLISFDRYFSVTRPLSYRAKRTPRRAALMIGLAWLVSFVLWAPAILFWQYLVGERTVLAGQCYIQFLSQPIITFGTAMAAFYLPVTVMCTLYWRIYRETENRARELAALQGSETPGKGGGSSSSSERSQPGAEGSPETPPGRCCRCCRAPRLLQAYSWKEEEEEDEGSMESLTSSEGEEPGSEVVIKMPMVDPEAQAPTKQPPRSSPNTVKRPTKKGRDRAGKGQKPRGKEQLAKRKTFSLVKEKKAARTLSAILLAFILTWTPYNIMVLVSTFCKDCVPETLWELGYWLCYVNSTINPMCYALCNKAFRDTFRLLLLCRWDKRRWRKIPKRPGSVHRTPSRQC
Consider the following partition of reported Emax into named classes: zone 1 = under 3%, zone 2 = from 3% up to 10%, zone 3 = 10% and over

-- ask Class for "[2H]C1([2H])c2ncccc2C(=O)N1Cc1ccc(-c2ccc(OC(C)C)c3nn(C)cc23)cc1F" ?
-- reply zone 3

-- ask Class for "[2H]C1([2H])c2ncccc2C(=O)N1Cc1c(F)cc(-c2cccc3c2cnn3C2COC2)cc1F" ?
-- reply zone 1

-- ask Class for "[2H]C1([2H])c2ncccc2C(=O)N1Cc1c(F)cc(-c2ccc(OCCOC)c3nn(C)cc23)cc1OCC(C)C" ?
-- reply zone 3

-- ask Class for "[2H]C1([2H])c2ncccc2C(=O)N1Cc1c(F)cc(-c2cccc3nn(C)cc23)cc1C1CC1" ?
-- reply zone 3

-- ask Class for "[2H]C([2H])([2H])Oc1cc(-c2cc(F)c(CN3C(=O)c4cccnc4C3([2H])[2H])c(F)c2)c2cnn(C([2H])([2H])[2H])c2c1" ?
-- reply zone 1

-- ask Class for "[2H]C([2H])([2H])Oc1cnc2c(c1)C(=O)N(Cc1ccc(-c3cccc4nn(C)cc34)cc1)C2([2H])[2H]" ?
-- reply zone 3

-- ask Class for "[2H]C1([2H])c2ncccc2C(=O)N1Cc1c(F)cc(-c2ccc(SC)c3nn(C)cc23)cc1F" ?
-- reply zone 2

-- ask Class for "[2H]C1([2H])c2ncccc2C(=O)N1Cc1c(F)cc(-c2ccc(C)c3nn(C)cc23)cc1F" ?
-- reply zone 2

-- ask Class for "[2H]C([2H])([2H])Oc1cnc2c(c1)C(=O)N(Cc1ccc(-c3cccc4nn(C)cc34)cc1F)C2([2H])[2H]" ?
-- reply zone 3

-- ask Class for "[2H]C1([2H])c2ncccc2C(=O)N1Cc1c(F)cc(-c2cccc3nn(C([2H])([2H])[2H])c(F)c23)cc1C1CC1" ?
-- reply zone 1

-- ask Class for "[2H]C1([2H])c2ncccc2C(=O)N1Cc1c(F)cc(-c2cccc3nn(CC)cc23)cc1F" ?
-- reply zone 3

-- ask Class for "[2H]C1([2H])c2ncccc2C(=O)N1Cc1ccc(-c2ccc3cn(C)nc3c2)cc1" ?
-- reply zone 1

-- ask Class for "[2H]C1([2H])c2ncccc2C(=O)N1Cc1c(F)cc(-c2ccc(OC3CN(CCCC)C3)c3nn(C)cc23)cc1F" ?
-- reply zone 2

-- ask Class for "[2H]C1([2H])c2ncccc2C(=O)N1Cc1c(F)cc(-c2ccc(OC(F)(F)F)c3nn(C([2H])([2H])[2H])cc23)cc1F" ?
-- reply zone 1

-- ask Class for "[2H]C1([2H])c2ncccc2C(=O)N1Cc1c(F)cc(-c2ccc(Cl)c3nn(C)cc23)cc1F" ?
-- reply zone 1

-- ask Class for [2H]C1([2H])c2ncccc2C(=O)N1Cc1ccc(-c2ccc(OCC3CCO3)c3nn(C)cc23)cc1F (stereo not drawn) ?
-- reply zone 3

-- ask Class for "[2H]C1([2H])c2ncc(OCCc3ccccn3)cc2C(=O)N1Cc1c(F)cc(-c2cccc3nn(C([2H])([2H])[2H])cc23)cc1F" ?
-- reply zone 3

-- ask Class for "[2H]C1([2H])c2ncccc2C(=O)N1Cc1c(F)cc(-c2cc(F)c(Cl)c3c2cnn3C([2H])([2H])[2H])cc1F" ?
-- reply zone 3

-- ask Class for "[2H]C1([2H])c2ncccc2C(=O)N1Cc1c(F)cc(-c2ccc(F)c3nn(C)cc23)cc1C1CC1" ?
-- reply zone 3
